Entries and their measured AC50 follow.
# Read-out: Cytochrome P450 3A4 (Homo sapiens) (UniProt P08684)
# Sequence (P08684 whole entry, looked up): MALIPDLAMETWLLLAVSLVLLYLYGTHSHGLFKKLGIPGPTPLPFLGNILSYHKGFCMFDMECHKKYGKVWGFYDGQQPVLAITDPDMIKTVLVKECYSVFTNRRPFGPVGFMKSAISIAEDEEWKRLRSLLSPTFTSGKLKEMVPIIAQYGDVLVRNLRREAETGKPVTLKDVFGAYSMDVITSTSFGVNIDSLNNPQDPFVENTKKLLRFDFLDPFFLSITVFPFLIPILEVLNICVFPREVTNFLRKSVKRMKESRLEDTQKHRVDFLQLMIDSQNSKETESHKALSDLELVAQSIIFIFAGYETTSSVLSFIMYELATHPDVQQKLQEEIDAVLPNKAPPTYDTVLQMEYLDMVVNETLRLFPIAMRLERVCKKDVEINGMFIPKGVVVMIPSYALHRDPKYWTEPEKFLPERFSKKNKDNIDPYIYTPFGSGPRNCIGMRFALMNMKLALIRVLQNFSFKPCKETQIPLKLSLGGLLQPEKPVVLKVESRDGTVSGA
# Measurement notes: CLD_CYP3A4_48hr: CellzDirect (CLD) Gene Expression Assay for xenobiotic metabolism (CYP3A4) at 48 hours (AID 2283698)
Results filed as inconclusive are left out. The source made the active and inactive calls. How the source made its calls: active means hit-call score of the fitted dose curve at least 0.9, where 1 is the maximum; inconclusive means response in the unintended direction; inactive means score below 0.9.

Recorded AC50, per entry:
- O=C(O)C(F)(F)C(F)(F)C(F)(F)C(F)(F)C(F)(F)C(F)(F)C(F)(F)F: 3.97 µM (active)
- CC(C)(C)C(O)/C(=C\c1ccc(Cl)cc1Cl)n1cncn1 (stereo not drawn): 1.9 µM (active)

Okay, next one:
Query block: So what's the measured AC50 for this one? CCOC1Oc2ccc(OS(C)(=O)=O)cc2C1(C)C (stereo not drawn)
Result block: 5.87 µM (active)
